Assay: NCI Yeast Anticancer Drug Screen. Data for the rad50 strain (AID 155)
Conditions: S. cerevisiae rad50 strain growth inhibition; at 5.0 µM (retest, dose inferred, filed as 0.5); active compounds read high
Compounds without any hit were thinned out: in the full panel of roughly 79,000, 15% have a hit.
Note that class boundaries on growth inhibition are bin A = under 10%, bin B = from 10% up to 60%, bin C = 60% and over

*Q* Lab log: "COc1ccc2nc(N/N=C/c3sccc3C)cc(C)c2c1" — assign growth inhibition category
*A* bin A

*Q* Lab log: "Nc1cccc2cc(Cl)cnc12" — assign growth inhibition category
*A* bin C

*Q* Lab log: "O=C1C(Br)=CC(Br)(Br)C=C1Br" — assign growth inhibition category
*A* bin C

*Q* Lab log: "Nc1nc(Nc2ccccc2)nc(Nc2ccccc2)n1" — assign growth inhibition category
*A* bin A

*Q* Lab log: c1ccc(C2=NNC3c4ccccc4-c4ccccc4N3C2)cc1 (stereo not drawn) — assign growth inhibition category
*A* bin B

*Q* Lab log: COC(=O)C1(N2CCOCC2)CCC([C@@H](c2ccccc2)C(C)[N+](=O)[O-])C1 (stereo partly drawn) — assign growth inhibition category
*A* bin B

*Q* Lab log: "CN(C)c1ccc(/C=C/c2ccnc3ccc4ccccc4c23)cc1" — assign growth inhibition category
*A* bin A

*Q* Lab log: OC1C#CCSCC#C/C=C\1 (stereo not drawn) — assign growth inhibition category
*A* bin B

*Q* Lab log: "CN1CCN(c2ccc3nc(-c4ccc5nc(-c6ccc(O)cc6)[nH]c5c4)[nH]c3c2)CC1" — assign growth inhibition category
*A* bin C

*Q* Lab log: CC1=NN(C(=O)CC(=O)N(C(=O)c2ccccc2)c2ccc(Cl)cc2)C(=O)C1N=Nc1ccc([N+](=O)[O-])cc1 (stereo not drawn) — assign growth inhibition category
*A* bin B

*Q* Lab log: "O=C1C=CC(=O)N1c1ccc(Br)cc1Cl" — assign growth inhibition category
*A* bin B

*Q* Lab log: "O=Cn1c2ccccc2c2ccccc21" — assign growth inhibition category
*A* bin C

*Q* Lab log: "Cc1ccc(Nc2n[nH]c(=S)s2)cc1C" — assign growth inhibition category
*A* bin C

*Q* Lab log: "Oc1ccc(Cc2nccc3cc(O)c(O)cc23)cc1O" — assign growth inhibition category
*A* bin B

*Q* Lab log: "CC[C@@]1(OC(=O)CN(C)C)C(=O)OCc2c1cc1n(c2=O)Cc2cc3ccccc3nc2-1" — assign growth inhibition category
*A* bin C

*Q* Lab log: NCC(O)CSCc1ccc(Cl)cc1 (stereo not drawn) — assign growth inhibition category
*A* bin A

*Q* Lab log: CC(O)CN1C(=O)c2cccc3cc([N+](=O)[O-])cc(c23)C1=O (stereo not drawn) — assign growth inhibition category
*A* bin B

*Q* Lab log: "Cc1ccc(C(C)C)c(C(=C2C=CC(=[N+](C)C)C=C2)c2c(C(C)C)ccc(C)c2O)c1O" — assign growth inhibition category
*A* bin C

*Q* Lab log: "Cc1ccc2c(/C=C/c3ccc(N(C)C)cc3)ccnc2c1C" — assign growth inhibition category
*A* bin A

*Q* Lab log: "COc1cc(C(C)(C)C)cc(OC)c1C(O)(c1c(OC)cc(C(C)(C)C)cc1OC)c1c(OC)cc(C(C)(C)C)cc1OC" — assign growth inhibition category
*A* bin B

*Q* Lab log: "Nc1ccc2ncc(Nc3ccc(Cl)c(Cl)c3)nc2c1" — assign growth inhibition category
*A* bin A

*Q* Lab log: "O=[N+]([O-])C(=C(NCc1ccccc1)NCc1ccccc1)C(Cl)=C(Cl)Cl" — assign growth inhibition category
*A* bin A

*Q* Lab log: "COc1ccc(C(=O)NCCN(C)C)c2nc3ccccc3cc12" — assign growth inhibition category
*A* bin C

---

Test: NCI Yeast Anticancer Drug Screen. Data for the mec2-1 strain (AID 157)
Conditions: S. cerevisiae mec2-1 strain, at 50.0 µM
About 79,000 compounds went through this panel and 15% of them were active in at least one assay; those are over-represented in the sample as a whole. Activity calls are given as the source filed them. Rule as the data show it: active = growth inhibition above about 70%; inactive = the rest.
Tick one outcome: active, inactive

*Q* Field: outcome | Entry: CC1(C)CC(=O)C(C(CC(c2ccccc2)c2cc3c(cc2O)OCO3)C2=C(O)CC(C)(C)CC2=O)=C(O)C1 (stereo unspecified)
*A* active

*Q* Field: outcome | Entry: "COc1cc(C(C)(C)C)cc(OC)c1C(O)(c1c(OC)cc(C(C)(C)C)cc1OC)c1c(OC)cc(C(C)(C)C)cc1OC"
*A* active

*Q* Field: outcome | Entry: CC(O)CN1C(=O)c2cccc3cc([N+](=O)[O-])cc(c23)C1=O (stereo unspecified)
*A* inactive

*Q* Field: outcome | Entry: "O=C(CCC(=O)c1ccc(O)cc1)Oc1ccc(O)cc1"
*A* inactive

*Q* Field: outcome | Entry: "CN1CCN(c2ccc3nc(-c4ccc5nc(-c6ccc(O)cc6)[nH]c5c4)[nH]c3c2)CC1"
*A* active

*Q* Field: outcome | Entry: "Nc1ccc2cc(Br)c3ccccc3c2c1"
*A* active

*Q* Field: outcome | Entry: "CCSc1c2ccccc2c(-c2nc(F)nc(F)n2)n1CCc1ccccc1"
*A* active

*Q* Field: outcome | Entry: "O=C(Cc1ccccc1F)NC1=C(Cl)C(=O)c2ccccc2C1=O"
*A* inactive

*Q* Field: outcome | Entry: OC(c1ccc(Br)cc1)(c1cccs1)C1CC1 (stereo unspecified)
*A* active

*Q* Field: outcome | Entry: "CC[C@@]1(OC(=O)CN(C)C)C(=O)OCc2c1cc1n(c2=O)Cc2cc3ccccc3nc2-1"
*A* active

*Q* Field: outcome | Entry: "O=C(O)CN(CCNC(=O)OCC1c2ccccc2-c2ccccc21)CCNC(=O)OCC1c2ccccc2-c2ccccc21"
*A* active

*Q* Field: outcome | Entry: OCC(O)C(O)C(O)C(O)c1nc2ccccc2[nH]1 (stereo unspecified)
*A* inactive

*Q* Field: outcome | Entry: "Cc1ccc(N(C=O)c2c([N+](=O)[O-])cc([N+](=O)[O-])c3c2=[N+]([O-])CN=3)cc1"
*A* inactive

*Q* Field: outcome | Entry: "CC(C)(C(=O)NN)c1ccccc1"
*A* inactive

*Q* Field: outcome | Entry: "CC1=Cc2ccc(C)cc2C(=O)C1=O"
*A* active

*Q* Field: outcome | Entry: "N=C(N)c1ccc(N=Nc2c(O)ccc3c2[nH]c2ccccc23)cc1"
*A* active

*Q* Field: outcome | Entry: "S=c1[nH]nc(Cc2ccccc2)c(=S)[nH]1"
*A* inactive

*Q* Field: outcome | Entry: "Cn1c(COc2ccc(/C=N/NC(=O)CCC(=O)N/N=C/c3ccc(OCc4c[n+]5ccccc5n4C)cc3)cc2)c[n+]2ccccc12"
*A* inactive

*Q* Field: outcome | Entry: "O=C(Cc1ccccc1)c1ccc(O)cc1"
*A* active

*Q* Field: outcome | Entry: "Cc1ccc(C(C)C)c(C(=C2C=CC(=[N+](C)C)C=C2)c2c(C(C)C)ccc(C)c2O)c1O"
*A* active

*Q* Field: outcome | Entry: "COc1ccc2c(C)cc(N/N=C/c3sccc3C)nc2c1"
*A* inactive

---

Test: NCI Yeast Anticancer Drug Screen. Data for the mgt1 strain (AID 153)
Details: S. cerevisiae mgt1 mutant growth inhibition; at 11.0 µM; active compounds read high
This is part of a sample that, as a whole, favours compounds with a hit. Of some 79,000 tested, about 15% had one in any assay.
Note that class boundaries on growth inhibition are L: < 10%; M: ≥ 10% and < 50%; H: ≥ 50%

*Q* Lab log: Cc1ccccc1C1=C(CC(=O)O)c2ccccc2CC1C (stereo unspecified) — assign growth inhibition category
*A* M

*Q* Lab log: CCOC(=O)C(NC(=O)c1ccccc1)[CH](c1ccccc1)[Sn]([c]1ccccc1)([c]1ccccc1)[c]1ccccc1 (stereo unspecified) — assign growth inhibition category
*A* L

*Q* Lab log: "CCCCCCCCCC/C=C\CC(=O)O" — assign growth inhibition category
*A* L

*Q* Lab log: "CCOC(=O)c1sc2[n+](c1C)C(=O)/C(=C/c1cc(OC)c(OC)c(OC)c1)S2" — assign growth inhibition category
*A* H

*Q* Lab log: "O=C1c2ccc(O)cc2C(=O)c2c(O)ccc(O)c21" — assign growth inhibition category
*A* H

*Q* Lab log: "CN(C)CCC(=O)c1c[nH]c2ccccc12" — assign growth inhibition category
*A* L

*Q* Lab log: "NNc1nnc(-c2ccccc2)nc1Cc1ccccc1" — assign growth inhibition category
*A* M

*Q* Lab log: "Cc1ccc(C(C)C)c(C(=C2C=CC(=[N+](C)C)C=C2)c2c(C(C)C)ccc(C)c2O)c1O" — assign growth inhibition category
*A* H

*Q* Lab log: "CCCC#CCOC(=O)c1cc([N+](=O)[O-])cc([N+](=O)[O-])c1" — assign growth inhibition category
*A* H

*Q* Lab log: "CN(C)N=Nc1ccc(NC=O)cc1" — assign growth inhibition category
*A* M
